Target: human APJ receptor (Homo sapiens (Human))
Experiment: biochemical
Assay type: biochemical
Details: read-out: Activity hAPJ SPA EC50 IP
Reported EC50 is given for each of the following compounds.
Return type: number; implicit unit nM.

Some compounds with known EC50 results, for comparison:
compound | EC50, nM
COc1cccc(OC)c1-n1c(NS(=O)(=O)[C@@H](C)Cc2ncc(F)cn2)nnc1-c1cncc(C)c1 (single isomer, unassigned) [Example 208.0] | 1
COc1cccc(-c2nnc(NS(=O)(=O)[C@@H](C)[C@H](O)C3CC3)n2-c2c(OC)cccc2OC)n1 (single isomer, unassigned) | 110

# input For COc1cc(C)cc(-c2nnc(NS(=O)(=O)[C@@H](C)[C@H](C)c3ncc(C)cn3)n2-c2c(OC)cccc2OC)n1 , what is its reported EC50?
# output 0.12

----------
Molecular target: human APJ receptor (Homo sapiens (Human), UniProt P35414)
Sequence (P35414 whole entry): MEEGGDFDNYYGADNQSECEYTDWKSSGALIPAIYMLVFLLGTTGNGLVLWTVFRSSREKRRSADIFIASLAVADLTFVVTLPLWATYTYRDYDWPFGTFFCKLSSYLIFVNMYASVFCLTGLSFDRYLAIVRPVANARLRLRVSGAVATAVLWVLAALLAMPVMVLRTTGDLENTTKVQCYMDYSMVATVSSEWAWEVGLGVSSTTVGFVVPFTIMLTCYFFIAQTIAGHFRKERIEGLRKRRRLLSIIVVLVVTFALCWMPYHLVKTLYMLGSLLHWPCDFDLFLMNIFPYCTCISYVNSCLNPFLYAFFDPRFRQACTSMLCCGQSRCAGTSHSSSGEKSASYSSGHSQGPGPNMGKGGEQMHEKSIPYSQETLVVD
Assay: biochemical
Conditions: read-out: Activity hAPJ SPA EC50 IP
Reported EC50 is given for each of the following compounds.

compound | target.of.assay | EC50
COc1cccc(-c2nnc(NS(=O)(=O)[C@@H](C)[C@H](OC)c3ncc(C)cn3)n2-c2cccnc2)n1 | human APJ receptor (Homo sapiens (Human), UniProt P35414) | 56 nM
CCOc1cccc(-c2nnc(NS(=O)(=O)[C@@H](C)[C@H](C)c3ncc(F)cn3)n2-c2c(OC)cccc2OC)n1 | human APJ receptor (Homo sapiens (Human), UniProt P35414) | 0.062 nM
COc1cnc([C@@H](O)[C@H](C)S(=O)(=O)Nc2nnc(-c3cncc(C)c3)n2-c2c(OC)cccc2OC)cn1 (single isomer, unassigned) [Example 309.0] | human APJ receptor (Homo sapiens (Human), UniProt P35414) | 9.5 nM

# input Any idea what EC50 came out for CCO[C@H](c1ncc(F)cn1)[C@H](C)S(=O)(=O)Nc1nnc(-c2cccc(OC)n2)n1-c1c(OC)cccc1OC on human APJ receptor (Homo sapiens (Human), UniProt P35414)?
# output 0.18 nM

----------
Reported pEC50 is given for each of the following compounds.
Molecular target: human APJ receptor (Homo sapiens (Human))
Test: biochemical
Settings: read-out: Activity hAPJ SPA EC50 IP
For clarity, pEC50 is expressed as the negative log10 of concentration in mol/L.

Some compounds with known pEC50 results, for comparison:
compound | pEC50
COc1cccc(OC)c1-n1c(NS(=O)(=O)[C@H](C)[C@@H](OC)c2ncnn2C)nnc1-c1cncc(C)c1 (mixture of isomers) [Example 637.0] | 6.82
COc1cccc(OC)c1-n1c(NS(=O)(=O)[C@@H](C)[C@H](OC)c2ncc(C3=CCOCC3)cn2)nnc1-c1cncc(C)c1 [Example 749.0] | 7.82
COc1cccc(-c2nnc(NS(=O)(=O)C[C@H](O)c3ccc(F)cc3S(C)(=O)=O)n2-c2c(OC)cccc2OC)n1 (single isomer, unassigned) [Example 268.0] | 9.77
COc1cccc(OC)c1-n1c(NS(=O)(=O)[C@@H]2C[C@@H](OC)CN(c3ncc(F)cn3)C2)nnc1-c1cccnc1 (stereo in doubt) [Example 819.0] | 7.48
COc1cccc(OC)c1-n1c(NS(=O)(=O)[C@@H](C)Cc2ncc(F)cn2)nnc1-c1ccccn1 (mixture of isomers) [Example 202.0] | 7.81

# input Any idea what pEC50 came out for COc1cccc(OC)c1-n1c(NS(=O)(=O)[C@@H](C)[C@H](C)c2ncc(C)cn2)nnc1-c1cccc(C)n1 [Example 87.0] on human APJ receptor (Homo sapiens (Human))?
# output 9.40

# input For COc1cccc(OC)c1-n1c(NS(=O)(=O)C[C@H](O)c2ccc(Cl)cc2S(C)(=O)=O)nnc1-c1cncc(C)c1 (single isomer, unassigned) [Example 458.0] then?
# output 9.80
